- method_description: Phase 1 SAD/MAD pharmacokinetics of oral ATI-450 in healthy subjects (incl. 80/120 mg BID extension)
- Format: in vivo, human
- run_conditions: both sexes, human, plasma, oral, 80 mg, 80 mg BID, day 7
- Protocol: Study Design. […] Single ascending dose (SAD) cohorts. […] Multiple ascending dose (MAD) cohorts. […] Blood Sampling and Bioanalysis. Two-milliliter blood samples were collected for PK analysis. […] The lower limit of quantification was 0.500 ng/mL. Pharmacokinetics. […] The method was minimally required to have intra- and inter-day precision (coefficients of variation) for pooled plasma quality control samples of ≤15% except at the lower limit of quantitation, where ≤20% was acceptable. […]
recorded_endpoint: AUC (ng·h/mL)
The figure you give is taken to be in ng·h/mL; do not add the unit.

Briefly, AUC measured for Cc1cnc(-c2ccnc(C(C)(C)O)n2)cc1-n1c(C)cc(OCc2ncc(F)cc2F)c(Cl)c1=O (single isomer, unassigned) : 2550
